- protocol_summary: qHTS Validation assay for Inhibitors of Plasmodium falciparum Dd2 growth in vitro; further: nearly all actives have a fitted effect of over 70% in size
- condition_set: P. falciparum Dd2 in RBCs, SYBR Green growth, 72 h; series mostly up to 28.7 µM
About 1,600 (39%) of roughly 4,100 compounds were called active. Another 25% or so got no clear call; they are omitted. The call rests on the fitted dose curve; in most records, active means well fitted inhibition curve with a large enough effect; inconclusive means small, poorly fitted or top-dose-only effect; inactive means no such curve, though single readings can be large or run the other way. This is one part of the list.
Use one of these outcomes when replying: active, inactive

Ask | # fetch the recorded call for COc1ccc(CN2CCC3(CC(c4ccc(OC)cc4)=NO3)C2)cc1 (stereo unspecified) here
Reply | inactive

Ask | # fetch the recorded call for Cc1ccc(-c2cc3c(=O)n(CCNC(=O)c4cccnc4)ccn3n2)c(C)c1 here
Reply | inactive

Ask | # fetch the recorded call for CCOC(=O)c1ccccc1NC(=O)c1cn(CC(C)C)c(=O)c2cc(OC)c(OC)cc12 here
Reply | active

Consider now this further compound.
Ask | # fetch the recorded call for CCn1cc(C(=O)N2CCN(c3cc(Cl)ccc3C)CC2)c(=O)c2cc(S(=O)(=O)N3CCCCC3)ccc21 here
Reply | inactive

###

- protocol_summary: qHTS Validation assay for Inhibitors of Plasmodium falciparum Dd2 growth in vitro; further: nearly all actives have a fitted effect of over 70% in size
- condition_set: P. falciparum Dd2 in RBCs, SYBR Green growth, 72 h; series mostly up to 28.7 µM
Hit rate of the full screen: of about 4,100 compounds, about 1,600 (39%) were called active. About 25% were inconclusive and are not listed. Calls follow the shape of the dose curve; as a rule, active = well fitted inhibition curve with a large enough effect; inconclusive = small, poorly fitted or top-dose-only effect; inactive = no such curve, though single readings can be large or run the other way. Some of the results follow.
Use one of these outcomes when replying: active, inactive

See these solved cases before continuing.
Ask | # fetch the recorded call for COc1cncc(Nc2cnc3ccc(-c4ccc(F)cc4)nn23)c1 here
Reply | active

Ask | # fetch the recorded call for Cc1ccc(C(=O)Nc2ccc(OCc3cc(=O)n4c(C)csc4n3)cc2)cc1 here
Reply | inactive

Ask | # fetch the recorded call for O=C(NCc1nnc2ccc(-c3ccccc3)nn12)c1ccoc1 here
Reply | inactive

***
Ask | # fetch the recorded call for CC1(c2ccccc2)N(Cc2ccccc2)C(=O)OC12CCN(Cc1cccnc1)CC2 (stereo not drawn) here
Reply | active

Ask | # fetch the recorded call for CCOC(=O)C1CCN(C(=O)c2c(C)oc3c2C(=O)c2ccccc2C3=O)CC1 here
Reply | active

Ask | # fetch the recorded call for O=C(c1ccc2nc[nH]c2c1)N1CCCC2(C1)Nc1cccnc1NC2=NC1CCCC1 (stereo not drawn) here
Reply | inactive

Ask | # fetch the recorded call for CN1C(=O)c2cncnc2OCC1CNC(=O)Cc1cccs1 (stereo not drawn) here
Reply | inactive

Ask | # fetch the recorded call for COc1ccc(-c2ccc3ncc(Nc4ccncc4)n3n2)cc1OC here
Reply | active

Ask | # fetch the recorded call for COC(=O)[C@H](Cc1ccc(OC)cc1)NC(=O)[C@H]1CN(C(=O)c2ccc(N(C)C)cc2)CCN1C(=O)C1CCCCC1 here
Reply | active

Ask | # fetch the recorded call for Cc1sc2ncnc(SC(C)C(=O)N3c4ccccc4Sc4ccccc43)c2c1C (stereo not drawn) here
Reply | inactive

Ask | # fetch the recorded call for CN(C)c1ccc(CC(=O)N2CC[C@@](C)(O)[C@@H](O)C2)cc1 here
Reply | inactive

Ask | # fetch the recorded call for COc1ccc(Nc2cnc3ccc(-c4ccc(OC)c(OC)c4)nn23)cc1 here
Reply | active

###

- protocol_summary: qHTS Validation assay for Inhibitors of Plasmodium falciparum Dd2 growth in vitro; further: nearly all actives have a fitted effect of over 70% in size
- condition_set: P. falciparum Dd2 in RBCs, SYBR Green growth, 72 h; series mostly up to 28.7 µM
Among all 4,100 compounds or so, about 1,600 (39%) were called active. Roughly 25% stayed inconclusive and do not appear here. Calls follow the shape of the dose curve; as a rule, active = well fitted inhibition curve with a large enough effect; inconclusive = small, poorly fitted or top-dose-only effect; inactive = no such curve, though single readings can be large or run the other way. This is one part of the list.
Use one of these outcomes when replying: active, inactive

Ask | # fetch the recorded call for COc1ccc(C(=O)N2CCCC(n3cc(-c4nc(C(C)C)no4)nn3)C2)cn1 (stereo not given) here
Reply | inactive

Ask | # fetch the recorded call for COc1ccc(NC(=O)c2c(C)oc3ccc(O)c(CN4CCN(Cc5ccccc5)CC4)c23)cc1 here
Reply | active

Ask | # fetch the recorded call for CCc1ccc(CNC(=O)c2ccc(-c3nc(CSc4ccc(C)cc4)c(C)o3)cc2)cc1 here
Reply | inactive

Ask | # fetch the recorded call for O=C(Cc1cccc(F)c1)N1CCC(Oc2ccccc2-c2nc(C3CC3)no2)C1 (stereo not given) here
Reply | inactive

Ask | # fetch the recorded call for Cc1oc2ccc(O)c(CN3CCCCCC3)c2c1C(=O)Nc1cccc(Cl)c1C here
Reply | active

Ask | # fetch the recorded call for Cc1cccc(NC(=O)Cn2nc3n(c2=O)CCCC3)c1C here
Reply | inactive

Ask | # fetch the recorded call for CC(=O)N(C)C1=C(N2CCOCC2)C(=O)c2ccccc2C1=O here
Reply | active

Ask | # fetch the recorded call for C=CCCC(CN1CCCC1)Oc1ccc(C(=O)N2CCCC2)cn1 (stereo not given) here
Reply | active

Ask | # fetch the recorded call for O=C(NC1=C(Nc2ccc(Cl)cc2)C(=O)c2ccccc2C1=O)c1ccccc1 here
Reply | active

Ask | # fetch the recorded call for Cc1cccc(NC2=C(NC(=O)c3ccccc3)C(=O)c3ccccc3C2=O)c1 here
Reply | active

Ask | # fetch the recorded call for Cc1oc2ccc(O)c(CN3CCN(Cc4ccccc4)CC3)c2c1C(=O)Nc1cccc(Cl)c1C here
Reply | active

Ask | # fetch the recorded call for COc1ccc(C)cc1-n1c(-c2ccc(Cl)cc2)cc2c1CC(C)(C)CC2=O here
Reply | active

Ask | # fetch the recorded call for CC(C)N1C(=O)C(CC(=O)N(C)Cc2cccnc2)=C2CCCCC21 (stereo not given) here
Reply | inactive

Ask | # fetch the recorded call for Cc1cc(N2CCN(C3CCCCC3)CC2)nc2cccc(O)c12 here
Reply | active

Ask | # fetch the recorded call for c1ccc(-c2nc(-c3ccncc3)no2)c(OC2CCN(C3CCCC3)C2)c1 (stereo not given) here
Reply | active

###

- protocol_summary: qHTS Validation assay for Inhibitors of Plasmodium falciparum Dd2 growth in vitro; further: nearly all actives have a fitted effect of over 70% in size
- condition_set: P. falciparum Dd2 in RBCs, SYBR Green growth, 72 h; series mostly up to 28.7 µM
In all, about 4,100 compounds went through this assay and about 1,600 (39%) were called active. Roughly 25% stayed inconclusive and do not appear here. Calls follow the shape of the dose curve; as a rule, active = well fitted inhibition curve with a large enough effect; inconclusive = small, poorly fitted or top-dose-only effect; inactive = no such curve, though single readings can be large or run the other way. Some of the results follow.
Use one of these outcomes when replying: y (active), n (inactive)

See these solved cases before continuing.
Ask | # fetch the recorded call for CCCNC(=O)N1CCC(N2C(=O)[C@H](OCCOC)[C@@H]2c2ccncc2)CC1 here
Reply | n

Ask | # fetch the recorded call for O=C1CCN(S(=O)(=O)c2ccccc2)CCCC(C(=O)NCCc2cccnc2)CCN1 (stereo unspecified) here
Reply | n

Ask | # fetch the recorded call for Cn1cc(C(NS(=O)(=O)c2cccc3c2OCCO3)C2CC(O)C2)cn1 (stereo unspecified) here
Reply | n

Ask | # fetch the recorded call for O=C(NCCc1ccncc1)c1ccc(-c2nnc3ccc(NC(=O)C4CCC4)cn23)cc1 here
Reply | y

Ask | # fetch the recorded call for O=C(NCCN1CCCCC1)c1ccc(-c2nnc3ccc(NC(=O)C4CCC4)cn23)cc1 here
Reply | y

Ask | # fetch the recorded call for CC1CN(C(=O)Nc2ccc(C(=O)NCCc3ccccc3)cc2)c2ccccc2S1 (stereo unspecified) here
Reply | n

Ask | # fetch the recorded call for O=C(Nc1ccc(-c2nnc3n2CCCC3)cc1)c1ccccc1F here
Reply | n

Ask | # fetch the recorded call for O=C(NCCc1cccnc1)c1ccc(-c2nnc3ccc(NC(=O)C4CCC4)cn23)cc1 here
Reply | y

***
Ask | # fetch the recorded call for Oc1c(C(Nc2ccccn2)c2ccccc2F)ccc2cccnc12 (stereo unspecified) here
Reply | y

Ask | # fetch the recorded call for CCCc1noc(-c2cn(C3CCN(C(=O)Cc4cccc(F)c4)CC3)nn2)n1 here
Reply | n

Ask | # fetch the recorded call for CCc1noc(-c2cn(C3CCN(C(=O)c4ccc(F)c(F)c4)CC3)nn2)n1 here
Reply | n

###

- protocol_summary: qHTS Validation assay for Inhibitors of Plasmodium falciparum Dd2 growth in vitro; further: nearly all actives have a fitted effect of over 70% in size; further: potency means the concentration at half of the fitted maximal effect
- condition_set: P. falciparum Dd2 in RBCs, SYBR Green growth, 72 h; series mostly up to 28.7 µM
In all, about 4,100 compounds went through this assay and about 1,600 (39%) were called active. Another 25% or so got no clear call; they are omitted. Some of the results follow.
outcome_measure: Potency

Examples from the recorded data:
Ask | Report Potency, nothing else, for this compound: CNC(=O)c1ccsc1NC(=O)CCS(=O)(=O)c1ccccc1
Reply | inactive

Ask | Report Potency, nothing else, for this compound: Cc1ccccc1C(=O)NNc1ccc(-c2csnn2)cc1
Reply | inactive

Ask | Report Potency, nothing else, for this compound: COc1ccccc1-c1ccc(CN2CCCC(c3nc4ccc(F)cc4c(=O)[nH]3)C2)cc1 (stereo not given)
Reply | 8.41 µM (active)

Ask | Report Potency, nothing else, for this compound: COCCN1CCCCCC(O)c2cc(C(=O)NCCc3ccccc3)ccc21 (stereo not given)
Reply | inactive

Now consider a different compound.
Ask | Report Potency, nothing else, for this compound: CCN1CCN(c2cc(C)c3cc(NC(=O)c4cccc(Cl)c4)ccc3n2)CC1
Reply | 4.73 µM (active)
